- measured_on: T1, human CLDN18.2 (human)
- T1 construct: also called huCLDN18.2; hCLDN18.2
- experiment_description: flow cytometry titration, HEK293T cells overexpressing CLDN18.2
measured_metric: EC50
Number plus unit, in that order.

Look over these answered cases.
hCl1h (antibody, human IgG1, kappa, V domains shown, Humanized) VH: QVQLVQSGAEVKKPGASVKVSCKASGYTFTDYAMYWVRQAPGQRLEWMGWINAYTGKPTYAQKFQGRVTITRDTSASTAYMELSSLRSEDTAVYYCARAVYYGYTMDAWGQGTLVTVSS VL: DIQMTQSPSSLSASVGDRVTITCRASEDIYSNLAWYQQKPGKAPKLLIYSVKRLQDGVPSRFSGSGSGTDFTLTISSLQPEDFATYYCLQGSNFPLTFGQGTKVEIKR :: 0.432 µg/mL
hCl1a (antibody, human IgG1, kappa, V domains shown, Humanized) VH: QVQLVQSGAEVKKPGASVKVSCKASGYTFTDYAMHWVRQAPGQRLEWMGWINTYTGKPTYAQKFQGRVTITRDTSASTAYMELSSLRSEDTAVYYCARAVFYGYTMDAWGQGTLVTVSS VL: DIQMTQSPSSLSASVGDRVTITCRASEDIYSNLAWYQQKPGKAPKLLIFSVKRLQDGVPSRFSGSGSGTDFTLTISSLQPEDFATYYCLQGSNFPLTFGQGTKVEIKR :: 0.598 µg/mL
hCl1d (antibody, human IgG1, kappa, V domains shown, Humanized) VH: QVQLVQSGAEVKKPGASVKVSCKASGYTFTDYAMHWVRQAPGQRLEWMGWINTYTGKPTYSQKFQGRVTITRDTSASTAYMELSSLRSEDTAVYYCARAVFYGYTMDAWGQGTLVTVSS VL: DIQMTQSPSSLSASVGDRVTITCRTSEDIYSNFAWYQQKPGKAPKLLIYSVNRLQDGVPSRFSGSGSGTDFTLTISSLQPEDFATYYCLQGSKFPLTFGQGTKVEIKR :: 0.541 µg/mL

Then there is this binder:
Quickly give me recorded EC50 for hCl1b (antibody, human IgG1, kappa, V domains shown, Humanized) VH: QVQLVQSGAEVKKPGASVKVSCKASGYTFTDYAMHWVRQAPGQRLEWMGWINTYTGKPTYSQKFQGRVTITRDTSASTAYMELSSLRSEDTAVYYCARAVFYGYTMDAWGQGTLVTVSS VL: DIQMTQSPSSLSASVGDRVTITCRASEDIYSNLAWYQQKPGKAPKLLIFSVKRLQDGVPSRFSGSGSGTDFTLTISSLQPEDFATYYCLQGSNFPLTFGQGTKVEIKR
0.572 µg/mL
